Numbers sourced from patent US10316017B2.

Measured pIC50, listed per entry.
- Target or system: human Cot catalytic domain (30-397 amino acids) (Homo sapiens, UniProt P41279)
- Construct: Purified recombinant human Cot catalytic domain (30-397 amino acids) was purchased from Cama Biosciences; purchased Cama Biosciences (so in the source)
- Sequence (P41279 30-397): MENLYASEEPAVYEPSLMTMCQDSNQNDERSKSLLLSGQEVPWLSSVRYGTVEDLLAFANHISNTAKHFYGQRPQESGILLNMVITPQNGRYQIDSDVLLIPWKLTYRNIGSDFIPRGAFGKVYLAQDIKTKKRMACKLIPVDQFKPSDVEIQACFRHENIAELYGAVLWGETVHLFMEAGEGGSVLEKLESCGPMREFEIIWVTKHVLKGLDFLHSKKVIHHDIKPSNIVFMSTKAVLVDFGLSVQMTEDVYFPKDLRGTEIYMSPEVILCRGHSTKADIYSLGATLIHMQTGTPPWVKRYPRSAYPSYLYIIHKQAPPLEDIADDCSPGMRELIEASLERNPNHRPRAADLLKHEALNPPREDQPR
- Experiment summary: High Throughput Cot Biochemical Assay (KinEASE TR-FRET)
- Stated conditions: Cot KinEASE TR-FRET (HTRF) biochemical assay, 400 μM ATP; read-out: IC50 HTRF
Please treat pIC50 as minus the base-10 logarithm of the molar concentration.

Illustrative cases are given below, each with its answer.
| Compound | pIC50 |
| --- | --- |
| [2H][C@](Nc1cc(Cl)c2ncc(C#N)c(NCC(C)(C)C)c2c1)(c1cccc(C#N)c1)c1cn(C(C)(C)C)nn1 [Example 233] | 8.30 |
| [2H][C@](Nc1cc(Cl)c2ncc(C#N)c(Nc3c(F)ccc(Cl)c3F)c2c1)(c1cccc(C#N)c1)c1cn(C2CC2)nn1 [Example 275] | 7.64 |

q: Input CC(C)(C)N1CCC(n2cc([C@@H](Nc3cc(Cl)c4ncc(C#N)c(NC(=O)c5ccccc5)c4c3)c3ccc(F)cc3)nn2)CC1 [Compound 16] , output reported pIC50.
a: 5.85
